Test system: 435261-313-R-J1-PDC complex spheroid viability;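 also: spheroids exposed to the agents for seven days before readout; percent of vehicle control viability with DMSO wells as 100%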
Test: Anticancer human tumor 435261-313-R-J1-PDC patient-derived colon adenocarcinoma cell line growth inhibition [GQUAD]
Details: second compound 0.1 µM; first compound 0.1 µM; stronger effect = lower value
measure: viability, T/C (%)
Provide only the numeric value, understood in %.

compound	viability, T/C, %
Nc1ccn(C2OC(CO)C(O)C2(F)F)c(=O)n1 (stereo unspecified) + CN(C)c1ccc(Nc2c3ccc(NC(=O)CCN4CCCC4)cc3nc3cc(NC(=O)CCN4CCCC4)ccc23)cc1	103
O=C(c1cc(Cc2n[nH]c(=O)c3ccccc23)ccc1F)N1CCN(C(=O)C2CC2)CC1 + CN(C)c1ccc(Nc2c3ccc(NC(=O)CCN4CCCC4)cc3nc3cc(NC(=O)CCN4CCCC4)ccc23)cc1	83.7
C#Cc1c(F)ccc2cc(O)cc(-c3ncc4c(N5CC6CCC(C5)N6)nc(OCC56CCCN5CC(F)C6)nc4c3F)c12 (stereo unspecified) + Cc1cnc(CNC(=O)c2c(=O)c3ccc(N4CCCN(C)CC4)nc3n3c2sc2ccccc23)cn1	62.2

GET /values?readout=viability, T/C&system=435261-313-R-J1-PDC complex spheroid viability&item= CC1COCCN1c1cc(C2(S(C)(=N)=O)CC2)nc(-c2ccnc3[nH]ccc23)n1 (stereo unspecified) + Cc1cnc(CNC(=O)c2c(=O)c3ccc(N4CCCN(C)CC4)nc3n3c2sc2ccccc23)cn1;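 also: spheroids exposed to the agents for seven days before readout; percent of vehicle control viability with DMSO wells as 100%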
66.6

Next: Nc1ccn(C2OC(CO)C(O)C2(F)F)c(=O)n1 (stereo unspecified) + Cc1[nH]c2ccc(F)cc2c1-c1nc2c3cccnc3c3ncccc3c2[nH]1
45.5

Field entry: CC(C)n1c(=O)n(C)c2cnc3cc(F)c(-c4ccc(OCCCN5CCCCC5)nc4)cc3c21 + CN(C)c1ccc(Nc2c3ccc(NC(=O)CCN4CCCC4)cc3nc3cc(NC(=O)CCN4CCCC4)ccc23)cc1
99.2

Now consider CCCS(=O)(=O)Nc1ccc(F)c(C(=O)c2c[nH]c3ncc(-c4ccc(Cl)cc4)cc23)c1F + CN(C)c1ccc(Nc2c3ccc(NC(=O)CCN4CCCC4)cc3nc3cc(NC(=O)CCN4CCCC4)ccc23)cc1 and answer again.
110

// repeat for CC1COCCN1c1cc(C2(S(C)(=N)=O)CC2)nc(-c2ccnc3[nH]ccc23)n1 (stereo unspecified) + Cc1[nH]c2ccc(F)cc2c1-c1nc2c3cccnc3c3ncccc3c2[nH]1 and report
106

Can you check C#Cc1c(F)ccc2cc(O)cc(-c3ncc4c(N5CC6CCC(C5)N6)nc(OCC56CCCN5CC(F)C6)nc4c3F)c12 (stereo unspecified) + Cc1[nH]c2ccc(F)cc2c1-c1nc2c3cccnc3c3ncccc3c2[nH]1 next?
85.4

For Cc1cccc(N(C)C(=O)C2C(O)CCN2c2nc(C)cc(C(F)(F)F)c2C#N)c1 (stereo unspecified) + CN(C)c1ccc(Nc2c3ccc(NC(=O)CCN4CCCC4)cc3nc3cc(NC(=O)CCN4CCCC4)ccc23)cc1 then?
92.9

O=c1[nH]cc(F)c(=O)[nH]1 + CN(C)c1ccc(Nc2c3ccc(NC(=O)CCN4CCCC4)cc3nc3cc(NC(=O)CCN4CCCC4)ccc23)cc1 ?
114
